Quick reference: growth of the listed items.
# System: SK-OV-3 ovarian
# ASSAY TEXT: NCI-60 one-dose screen, 48 h (100 = growth as untreated, 0 = no growth, -100 = all killed)
# RUN PARAMETERS: 10 µM unless noted
Compounds without any hit were thinned out: in the full panel of roughly 83,000, 20% have a hit.
TEST READOUT: growth (%)

* COC(=O)/C=C1\S/C(=N\NC(=O)c2cc3ccc2/C=C\c2ccc(cc2)/C=C\3)N(Cc2ccccc2)C1=O | 133
* C=C1C(=O)O[C@H]2[C@H]1CC/C(CNS(=O)(=O)c1cccc3ccccc13)=C\CC[C@@]1(C)O[C@@H]21 | 107
* N#C/C(=C\c1ccc([N+](=O)[O-])s1)c1nc2cc(Br)ccc2s1 | 10.1
* COc1ccc(C(=O)c2nc3ccccc3n2CC(=O)c2ccc(Cl)cc2)cc1 | 107
* CC(C)N1C(=O)S/C(=C2/SC(=O)N(C(C)C)C2=O)C1=O | 127
* COc1cc(C2C3CC4CCCC[C@H]4N3[C@@]3(C(=O)Nc4cc(Cl)ccc43)C2C(=O)c2nc3ccccc3[nH]2)cc(OC)c1OC (some centres not stated) | 94.3
* CC1(C)CC(O)CCCCCCOc2c(CN)cccc2NC(=O)c2nc(cnc2N)-c2ccc(cc2)S1(=O)=O (configuration not stated) | 44.9

###

# Test system: RXF 393 renal
# ASSAY TEXT: NCI-60 one-dose screen, 48 h (100 = growth as untreated, 0 = no growth, -100 = all killed)
# RUN PARAMETERS: 10 µM unless noted
About 83,000 compounds went through this panel and 20% of them were active in at least one assay; those are over-represented in the sample as a whole.
Quick reference: growth of the listed items.
TEST READOUT: growth (%)

• CC(=O)CCC(=O)OCc1cc(=O)c(O)co1 = 113
• CCCCCN1C=C/C(=C\C(=O)N(C)c2ccc(OC(F)(F)F)cc2)c2ccccc21 = 107
• COc1ccc(CNCCN2C(=O)c3ccc4c5c(ccc(c35)C2=O)C(=O)N(CCNCc2ccc(OC)c(OC)c2OC)C4=O)c(OC)c1OC = -32.3
• CCCCC[n+]1ccc(SCC(=O)N(C)c2ccc(Oc3ccccc3)cc2)c2ccccc21 = 115
• O=C(Cc1ccc(/C=C/C(=O)c2nccs2)cc1)Nc1ccccc1 = 103
• N#C/C(=C\c1ccc(C(F)(F)F)cc1)c1cc2ccccc2[nH]1 = 113
• Cc1c(C(=O)NCCC(=O)NO)sc2ncnc(Nc3ccc(NC(=O)Nc4cccc(C(F)(F)F)c4)cc3)c12 = 104
• CCCCC/C=C/C(C)=C/C1CC(C)C/C=C/CCC(O)C(OC(N)=O)CCC(C)CC(O)C(C)C(=O)O1 (stereo not drawn) = 110

###

# System: MOLT-4 leukemia
# ASSAY TEXT: NCI-60 one-dose screen, 48 h
# RUN PARAMETERS: 10 µM unless noted
The panel holds about 83,000 compounds, 20% with a hit somewhere; the sample as a whole holds those more often. The source made the active and inactive calls. How the source made its calls: active means growth percent below 10; inactive means the rest.
Labels: y for active, n for inactive

- CN(C)CCn1c2ccc(Br)cc2c2nc3ccccc3nc21: n
- O=C1/C=C/[C@@H](O)[C@@H]2C[C@@H](O)C[C@H]2/C=C/CCC[C@H](CCc2ccc3ncccc3c2)O1: y
- O=C(Cn1c(C(=O)c2ccccc2)nc2ccccc21)c1ccc(F)cc1: n
- CC(=O)[C@@H]1CC[C@]2(C(N)=O)CC[C@]3(C)[C@H](CC[C@@H]4[C@@]5(C)CCCNC(C)(C)[C@@H]5CC[C@]43C)[C@@H]12: n
- N#CC1C(C#N)C2c3ccccc3C=CN2C1C(=O)c1ccc(Br)cc1 (centres undefined): n
- C/C(=N\NC(=O)CSc1nc2ccccc2c(=O)n1CCc1ccc(S(N)(=O)=O)cc1)c1ccccn1: n
- N#CC1=C(/N=C/c2ccccc2)Oc2c(ccc3ccccc23)C1c1ccc([N+](=O)[O-])cc1 (centres undefined): n
- NC(=S)N1N=C(c2ccccc2)CC1c1cn(-c2ccccc2)nc1-c1ccc(OCc2ccccc2)cc1 (centres undefined): n
- COC(=O)C1=C(C(=O)ON)C2C=CC1(C(Cc1ccccc1)Nc1ccccc1)O2 (centres undefined): n
- COc1ccc(C(=O)c2cc(OC)c(OC)c(OC)c2)cc1O: n
- CCOC(=O)Nc1ccc(-c2ccc3c(c2)NC(=O)/C3=C\c2ccc[nH]2)cc1: n
- CCCOC(=O)N[C@H]1CCc2c(Cl)c(OC)c(OC)c(OC)c2-c2ccc(SC)c(=O)cc21: y
- CSc1nc2sc3cccc(Cl)c3n2c(=N)c1C#N: n
- Cn1c(N2NC(=O)C(N=Nc3ccc(S(N)(=O)=O)cc3)C2=O)nc(-c2ccco2)c(C#N)c1=O (centres undefined): y
- O=C1c2ccc3c4c(ccc(c24)C(=O)N1CCCNCc1ccccc1Cl)C(=O)N(CCCNCc1ccccc1Cl)C3=O: y
- CCCCCCCCOc1ccc(/C=N/Nc2cc(C)nc3ccc(Br)cc23)cc1: n
- CCCCCCNC(=O)Oc1ccc(/C(=C(\C)c2ccccc2)c2ccc(OCCCN(C)C)cc2)cc1: n
- COc1cc2c(c(OC)c1OC)CCC(c1cccc(NC(=O)c3cccc(Br)c3)c1)O2 (centres undefined): n
- COc1ccc(/C=C2\COc3ccc(-c4ccccc4)cc3C2=O)c(OC)c1: n
- COc1ccc(C(=O)c2cc(C)c(OC)c(C)c2)c(OC)c1NC(C)=O: n
- Cn1nc(CC#N)c2c(=N)n(N)cnc21: n
- CN1CCN(C(=O)[C@]23CCC(C)(C)C[C@H]2C2=CC[C@@H]4[C@@]5(C)C/C(=C/c6ccncc6)C(=O)C(C)(C)[C@@H]5CC[C@@]4(C)[C@]2(C)CC3)CC1: y
- COC(=O)C(OC(C)=O)C(OC(C)=O)c1ccc(OC)c(OC)c1 (centres undefined): n
- O=C(N/N=C/c1ccc(Oc2ccccc2)cc1)c1cnn2c1NC(c1ccccc1)C2 (centres undefined): n

These data points were gathered from PubChem BioAssay (NCI).
